Measured half-life at 75 ug/ml by item
Procedure details: Stability in 25% mouse serum assessed as half life at 75 ug/ml by MALDI-TOF-MS analysis
Assay type: ADME, cell-free
Observed property: half-life at 75 ug/ml (h)

substance="H-VDKPPYLPRPRPPRRIYNR-NH2 [ONCOCIN]" endpoint_unit=h result_qualifier== quantitative_result=1.17
substance=H-VDKPPYLPRPRPPRRIYNR-OH endpoint_unit=h result_qualifier=< quantitative_result=0.5

---

Procedure details: Stability in 100% mouse serum assessed as half life at 75 ug/ml by MALDI-TOF-MS analysis
Type: ADME, cell-free
Observed property: half-life at 75 ug/ml (min)

substance="H-VDKPPYLPRPRPPRRIYNR-NH2 [ONCOCIN]" quantitative_result=20
